- PROTOCOL NOTES: The pKa value was measured at 31-P chemical shift changes due to protonation
I'd be grateful if you could share measured pKa for these entries.
Answers are plain numbers.

NP(N)(=O)O    5.4
O=P(O)(O)NP(=O)(O)O    10.3
Nc1ncnc2c1ncn2[C@@H]1O[C@H](COP(=O)(O)OP(=O)(O)OP(=O)(O)O)[C@@H](O)[C@H]1O    6.6
NP(=O)(O)O    3

Now look at this entry.
// lookup pKa for CCOP(=O)(NP(=O)(OCC)OCC)OCC
3.8
